Experiment: High throughput equilibrium solubility at pH 6.8
Type: physicochemical
Details: buffer
PARAMETER: solubility thermodynamic (µM)
Entry rule: numbers only, all in µM.

The examples below pair each entry with its known result.
[
  {
    "COMPOUND": "N#CCNC(=O)CNC(=O)[C@H](Cc1ccccc1)NC(=O)Cc1cc(Cl)cc(Cl)c1",
    "PARAMETER": "solubility thermodynamic",
    "REPORTED_VALUE": 30
  },
  {
    "COMPOUND": "C[C@@H](O)[C@H](NC(=O)Cc1cc(Cl)cc(Cl)c1)C(=O)NCC(=O)NCC#N",
    "PARAMETER": "solubility thermodynamic",
    "REPORTED_VALUE": 121
  },
  {
    "COMPOUND": "N#CCNC(=O)CNC(=O)[C@H](CN)NC(=O)Cc1cc(Cl)cc(Cl)c1",
    "PARAMETER": "solubility thermodynamic",
    "REPORTED_VALUE": 891
  },
  {
    "COMPOUND": "CC(C(=O)N[C@@H](Cc1ccccc1)C(=O)NCC(=O)NCC#N)c1cc(Cl)cc(Cl)c1 (mixture of isomers)",
    "PARAMETER": "solubility thermodynamic",
    "REPORTED_VALUE": 50
  },
  {
    "COMPOUND": "CC[C@H](C)[C@H](NC(=O)[C@@H](O)c1cc(Cl)cc(Cl)c1)C(=O)NCc1ccnc(C#N)n1",
    "PARAMETER": "solubility thermodynamic",
    "REPORTED_VALUE": 236
  },
  {
    "COMPOUND": "N#CCNC(=O)CNC(=O)C(Cc1ccccn1)NC(=O)Cc1cc(Cl)cc(Cl)c1 (racemic)",
    "PARAMETER": "solubility thermodynamic",
    "REPORTED_VALUE": 111
  }
]

Could you now consider this next compound?
Q: Value lookup for solubility thermodynamic; key = C[C@@H](O)[C@H](NC(=O)Cc1cc(Cl)cc(Cl)c1)C(=O)NCc1ccnc(C#N)n1
A: 556

* * *

Assay: Permeability from basolateral to apical side in human Caco2 cells
Assay type: ADME, cell-based
Conditions: Caco-2, read-out: permeability
PARAMETER: Papp B→A (×10⁻⁶ cm/s)
Entry rule: numbers only, all in ×10⁻⁶ cm/s.

The examples below pair each entry with its known result.
[
  {
    "TEST_SMILES": "CC[C@H](C(=O)N[C@H](C(=O)NCC(=O)NCC#N)C(C)(C)C)c1cc(Cl)cc(Cl)c1",
    "RESULT_UNIT": "×10⁻⁶ cm/s",
    "Papp B→A": 12.2
  },
  {
    "TEST_SMILES": "CC[C@H](C(=O)N[C@H](C(=O)NCC(=O)NCC#N)[C@@H](C)O)c1cc(Cl)cc(Cl)c1",
    "RESULT_UNIT": "×10⁻⁶ cm/s",
    "Papp B→A": 18
  },
  {
    "TEST_SMILES": "N#CCNC(=O)CNC(=O)[C@H](Cc1ccccc1)NC(=O)[C@@H](O)c1cccc(Cl)c1",
    "RESULT_UNIT": "×10⁻⁶ cm/s",
    "Papp B→A": 3.2
  }
]

Could you now consider this next molecule?
Q: Value lookup for Papp B→A; key = N#CCNC(=O)CNC(=O)[C@H](CN)NC(=O)Cc1cc(Cl)cc(Cl)c1
A: 1.2
